method.summary: in vitro
applied.conditions: human, HEK293 viability, dose 50 µM; individual replicate (Rep)
property.measured: viability (%)
Please reply with the bare figure in % and do not write the unit itself.

I'd like to know its viability. The molecule in question is C=C(C)[C@H]1Cc2c(ccc3c2O[C@@H]2COc4cc(OC)c(OC)cc4[C@@H]2C3=O)O1 [Rotenone, reference compound]
20.4

* * *

For each entry below, report its remaining activity at 0.025 µM value.
target: C. elegans (N2) complex I (NADH:ubiquinone oxidoreductase) (Caenorhabditis elegans, UniProt P24887+Q93873+Q94360)
Sequence (Q94360 17-199): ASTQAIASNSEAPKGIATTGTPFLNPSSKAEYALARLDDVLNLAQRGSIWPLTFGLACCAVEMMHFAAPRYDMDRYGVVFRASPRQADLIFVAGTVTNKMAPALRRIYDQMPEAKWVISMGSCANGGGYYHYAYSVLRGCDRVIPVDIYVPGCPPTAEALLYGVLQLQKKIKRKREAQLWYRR
Sequence (P24887 whole entry): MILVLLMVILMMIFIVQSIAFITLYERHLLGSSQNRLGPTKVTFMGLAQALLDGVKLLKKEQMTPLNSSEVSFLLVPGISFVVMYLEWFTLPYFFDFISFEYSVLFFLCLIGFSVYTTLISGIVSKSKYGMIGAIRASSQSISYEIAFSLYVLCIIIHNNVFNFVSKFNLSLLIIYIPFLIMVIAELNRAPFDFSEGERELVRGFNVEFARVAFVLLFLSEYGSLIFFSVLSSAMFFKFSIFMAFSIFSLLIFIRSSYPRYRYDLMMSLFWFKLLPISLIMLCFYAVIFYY
Sequence (Q93873 31-482): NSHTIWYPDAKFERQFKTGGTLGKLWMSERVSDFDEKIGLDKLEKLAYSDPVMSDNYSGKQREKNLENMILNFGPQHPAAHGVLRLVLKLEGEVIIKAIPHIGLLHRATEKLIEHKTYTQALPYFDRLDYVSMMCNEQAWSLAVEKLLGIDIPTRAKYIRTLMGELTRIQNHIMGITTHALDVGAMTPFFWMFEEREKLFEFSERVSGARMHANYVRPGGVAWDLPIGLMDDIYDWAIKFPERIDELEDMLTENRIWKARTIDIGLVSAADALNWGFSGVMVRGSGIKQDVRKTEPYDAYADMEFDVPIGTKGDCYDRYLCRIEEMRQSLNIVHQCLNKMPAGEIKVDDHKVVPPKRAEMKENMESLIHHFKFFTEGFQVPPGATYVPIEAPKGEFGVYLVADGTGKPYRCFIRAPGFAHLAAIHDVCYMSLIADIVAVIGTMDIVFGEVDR
method.summary: biochemical
Format: biochemical
applied.conditions: dose 0.025 µM; wild-type C. elegans; mean of replicates; read-out: in vitro complex I activity relative to solvent control, Mean
Please reply with the bare figure in % and do not write the unit itself.

I'd like to know its remaining activity at 0.025 µM. The compound in question is C=C(C)[C@H]1Cc2c(ccc3c2O[C@@H]2COc4cc(OC)c(OC)cc4[C@@H]2C3=O)O1 [Rotenone, reference compound]
89.6

I'd like to know its remaining activity at 0.025 µM. The compound in question is CC(C)(C)c1ccc(CCOc2ncnc3ccccc23)cc1 [Fenazaquin, reference compound]
12.5

I'd like to know its remaining activity at 0.025 µM. The compound in question is "Cc1ccccc1OCCCCn1cnc2ccccc21"
84.9

I'd like to know its remaining activity at 0.025 µM. The compound in question is COC(=O)Nc1nc2ccc(Sc3ccccc3)cc2[nH]1 [fenbendazole, reference compound]
108

I'd like to know its remaining activity at 0.025 µM. The compound in question is "Cc1nc2ccccc2n1Cc1ccc(Cl)cc1"
79.6
